- System: MCF7 breast
- experimentalProtocol: NCI-60 one-dose screen, 48 h (100 = growth as untreated, 0 = no growth, -100 = all killed)
- protocolConditions: 10 µM unless noted
About 83,000 compounds went through this panel and 20% of them were active in at least one assay; those are over-represented in the sample as a whole. Calls of active or inactive are those of the source. Rule for the calls: active = growth percent below 10; inactive = the rest.
assayEndpoint: growth

# compound, growth
data = [
    ("COc1ccc2c(OCc3nnc4ccc(-c5ccccc5)nn34)ccnc2c1", "93.4% [2.5 µM] (inactive)"),
    ("N#Cc1c(-c2ccc(C(F)(F)F)cc2)c(F)c(NCCC2CCC(O)C2)n2c1nc1ccccc12 (stereo not given)", "46.2% (inactive)"),
    ("Cc1cc(O)cc(-c2c(-c3ccnc(-c4cccnc4)c3)cnn2C)c1", "43.5% (inactive)"),
    ("Cc1cc(Nc2cc(N3CCN(C)CC3)nc(Sc3ccc(NC(=O)C4CC4)cc3)n2)n[nH]1", "28.5% (inactive)"),
]

### Prompt Form: Entry = `CC(=O)O[C@]1(C)C[C@H](O)[C@]2(O)C=CO[C@H](O[C@@H]3O[C@H](CO)[C@@H](O)[C@H](O)[C@H]3O)[C@@H]21` | System = MCF7 breast | growth = ____
### Response 94.4% (inactive)
